System: ANKK1;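 note: KINOMEscan kinase panel screen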
experimentalSetup: concentration: 1 μM, replicates: in singlicate; n = 1
Field: label. Allowed values: 1 (yes) (%Inh < 5%) or 0 (no) (%Inh >= 5%).

| molecule | label |
| --- | --- |
| COc1cccc(C2=C(N(C)c3ccccc3)C(=O)NC2=O)c1 | 1 (yes) |
| COc1ccc(CNC(=O)NC2CCN(c3ccnc(Nc4ccc(F)cc4)n3)C2)cc1 (stereo not drawn) | 0 (no) |
| Cc1c(Cn2c(C)nn3c(=O)cc(N4CCO[C@H](C)C4)nc23)cccc1C(F)(F)F | 1 (yes) |
| Cc1nnc(-c2ccc(C)c(-c3ccc(C(=O)O)cc3)c2)o1 | 1 (yes) |
| C[C@@H]1CC[C@H](C(=O)NC2CCCCC2)CN1c1cc(-c2ccc3c(N)n[nH]c3c2)nc(N)n1 | 0 (no) |
| CCc1ccc(-c2ccc3c(c2)-c2nn(C)cc2S(=O)(=O)N3C)cc1 | 1 (yes) |
| Nc1nc(-c2ccccc2F)c(-c2ccnc3ccccc23)s1 | 0 (no) |

In the following, a different molecule is considered.
q: Quick check: %Inh of COc1cc2ncn(-c3cc(OCCCc4ccccc4)c(C(N)=O)s3)c2cc1OC under 5%?
a: 1 (yes)

src = paper PMC5540273
